Molecular target: human recombinant KDM1A (LSD1)/CoRest (Homo sapiens, UniProt O60341)
Construct: made in house; host or cells: E. coli
Assay: Assay of enzyme inhibition of KDM1A (LSD1), Amplex UltraRed/peroxidase coupled
Format: biochemical
Details: 15 min preincubation, 4.5 μM mono-methylated H3-K4 peptide, range classes, read-out: IC50 [μM], KDM1A inhibition assay
Structures can show the parent of a compound that is named as a salt.
property: IC50

compound	property	data value
N[C@]1(CCc2ccccc2)C[C@H]1c1ccc(NC(=O)c2ccccc2)cc1 (relative stereo) [Example A-114, hydrochloride]	IC50	< 0.1 µM
COc1cccc([C@@H]2C[C@]2(N)Cc2ccccc2)c1 (relative stereo) [Example A-129, hydrochloride]	IC50	0.1 to 1 µM
N[C@]1(Cc2ccc3ccccc3c2)C[C@H]1c1ccc(-n2cc(-c3ccccc3)nn2)cc1 (relative stereo) [Example A-124, hydrochloride]	IC50	0.1 to 1 µM
CC[C@@]1(N)C[C@H]1c1ccc(NC(=O)c2ccc(N3CCN(C)CC3)cc2)c(F)c1 (relative stereo)	IC50	0.1 to 1 µM
N[C@]1(Cc2ccc3ccccc3c2)C[C@H]1c1ccc(NC(=O)Cc2cccc3ccccc23)cc1 (relative stereo) [Example A-76, hydrochloride]	IC50	0.1 to 1 µM
N[C@@]1(CCc2ccccc2)C[C@@H]1c1cccc(Br)c1 (relative stereo) [Example A-51, hydrochloride]	IC50	< 0.1 µM

**Query** Quick one: IC50 for N[C@]1(Cc2ccccc2)C[C@H]1c1ccc(OCc2ccccc2)cc1 (relative stereo) [Example A-43, hydrochloride] ?
**Result** 0.1 to 1 µM

**Query** Quick one: IC50 for CC[C@@]1(N)C[C@H]1c1ccc(NC(=O)Cc2cccc3ccccc23)c(F)c1 (relative stereo) [Example A-94, hydrochloride] ?
**Result** < 0.1 µM

**Query** Quick one: IC50 for CC[C@@]1(N)C[C@H]1c1ccc(-n2cc(-c3ccccc3)nn2)cc1 (relative stereo) [Example A-131, hydrochloride] ?
**Result** < 0.1 µM

**Query** Quick one: IC50 for N[C@]1(c2ccccc2)C[C@H]1c1ccc(NC(=O)c2cccc(Cl)c2)cc1 (relative stereo) [Example A-103, hydrochloride] ?
**Result** < 0.1 µM

**Query** Quick one: IC50 for N[C@]1(Cc2ccc3ccccc3c2)C[C@H]1c1ccc(OCc2ccccc2)cc1 (stereo in doubt) [Example A-67, hydrochloride] ?
**Result** 0.1 to 1 µM

**Query** Quick one: IC50 for N[C@]1(c2ccccc2)C[C@H]1c1ccc(NC(=O)c2ccccc2)cc1 (relative stereo) [Example A-75, hydrochloride] ?
**Result** < 0.1 µM

**Query** Quick one: IC50 for CC(=O)Nc1ccc([C@@]2(N)C[C@H]2c2ccccc2)cc1 (relative stereo) [Example D-6, hydrochloride] ?
**Result** 0.1 to 1 µM

* * *

Biological target: human recombinant KDM1A (LSD1)/CoRest (Homo sapiens)
Construct: made in house; host or cells: E. coli
Assay: Assay of enzyme inhibition of KDM1A (LSD1), Amplex UltraRed/peroxidase coupled
Format: biochemical
Conditions: 15 min preincubation, 4.5 μM mono-methylated H3-K4 peptide, range classes, read-out: IC50 [μM], KDM1A inhibition assay
Structures can show the parent of a compound that is named as a salt.
property: IC50

compound	IC50
N[C@]1(Cc2ccc3ccccc3c2)C[C@H]1c1ccc(NC(=O)Cc2ccccc2)cc1 (relative stereo) [Example A-46, hydrochloride]	< 0.1 µM
CN1CCN(C(=O)CN[C@@]2(C)C[C@H]2c2ccccc2)CC1 (relative stereo) [Example C-28, dihydrochloride]	1 to 5 µM
CC[C@@]1(N)C[C@H]1c1ccc(NC(=O)CCc2ccccc2)cc1 (relative stereo) [Example A-40, hydrochloride]	< 0.1 µM

**Query** Quick one: IC50 for CN1CCC(c2ccc(C(=O)Nc3ccc([C@@H]4C[C@]4(N)CCc4ccccc4)cc3)cc2)CC1 (relative stereo) [Example A-115, dihydrochloride] ?
**Result** < 0.1 µM

**Query** Quick one: IC50 for CC[C@@]1(N)C[C@H]1c1ccc(NC(=O)c2ccc(-c3ccncc3)cc2)cc1 (relative stereo) [Example A-102, dihydrochloride] ?
**Result** < 0.1 µM

**Query** Quick one: IC50 for CC[C@@]1(N)C[C@H]1c1ccc(NC(=O)c2ccncc2)cc1 (relative stereo) [Example A-101, dihydrochloride] ?
**Result** < 0.1 µM

**Query** Quick one: IC50 for N[C@]1(Cc2ccc3ccccc3c2)C[C@H]1c1ccc(NC(=O)c2ccc3ccccc3c2)cc1 (relative stereo) [Example A-72, hydrochloride] ?
**Result** 0.1 to 1 µM

**Query** Quick one: IC50 for CC[C@@]1(N)C[C@H]1c1ccc(NC(=O)c2ccc(N3CCN(C)CC3)c(NC(=O)OCc3ccccc3)c2)cc1 (relative stereo) ?
**Result** 0.1 to 1 µM

**Query** Quick one: IC50 for CC[C@@]1(N)C[C@H]1c1ccc(F)cc1 (relative stereo) [Example A-16, hydrochloride] ?
**Result** 1 to 5 µM

**Query** Quick one: IC50 for N[C@]1(Cc2ccc3ccccc3c2)C[C@H]1c1ccc(NC(=O)c2cccc(Cl)c2)cc1 (relative stereo) [Example A-79, hydrochloride] ?
**Result** < 0.1 µM

**Query** Quick one: IC50 for N[C@]1(Cc2ccc3ccccc3c2)C[C@H]1c1ccc(NC(=O)c2ccc(-c3ccccc3)cc2)cc1 (relative stereo) [Example A-73, hydrochloride] ?
**Result** 0.1 to 1 µM

**Query** Quick one: IC50 for CC[C@@]1(N)C[C@H]1c1ccc(NC(=O)Cc2cccc3ccccc23)cc1 (relative stereo) [Example A-68, hydrochloride] ?
**Result** < 0.1 µM

**Query** Quick one: IC50 for CC(C)[C@@]1(N)C[C@H]1c1ccccc1 (relative stereo) [Example A-7, hydrochloride] ?
**Result** 1 to 5 µM

* * *

Biological target: human recombinant KDM1A (LSD1)/CoRest (Homo sapiens)
Construct: made in house; host or cells: E. coli
Assay: Assay of enzyme inhibition of KDM1A (LSD1), Amplex UltraRed/peroxidase coupled
Type: biochemical
Details: 15 min preincubation, 4.5 μM mono-methylated H3-K4 peptide, range classes, read-out: IC50 [μM], KDM1A inhibition assay
Where a name gives a salt, the structure may show the parent alone.
property: IC50

molecule	IC50
CN1CCN(C(=O)CN[C@]2(C)C[C@@H]2c2ccccc2)CC1	1 to 5 µM
CC[C@@]1(N)C[C@H]1c1ccc(-n2cc(-c3cccc(NC(=O)OCc4ccccc4)c3)nn2)cc1 (relative stereo) [Example A-121, hydrochloride]	0.1 to 1 µM
N[C@]1(Cc2ccc3ccccc3c2)C[C@H]1c1ccc(F)cc1 (relative stereo) [Example A-54, hydrochloride]	0.1 to 1 µM

**Query** Quick one: IC50 for CC[C@@]1(N)C[C@H]1c1ccc(C(F)(F)F)cc1 (relative stereo) [Example A-19, hydrochloride] ?
**Result** 0.1 to 1 µM

**Query** Quick one: IC50 for C[C@@]1(NCc2ccc3c(c2)OCCO3)C[C@H]1c1ccccc1 (relative stereo) ?
**Result** 0.1 to 1 µM

**Query** Quick one: IC50 for CC[C@@]1(N)C[C@H]1c1ccc(OCc2ccccc2)cc1 (relative stereo) [Example A-41, hydrochloride] ?
**Result** 0.1 to 1 µM

**Query** Quick one: IC50 for N[C@]1(c2ccccc2)C[C@H]1c1ccc(NC(=O)c2cccc(NC(=O)OCc3ccccc3)c2)cc1 (relative stereo) ?
**Result** < 0.1 µM

**Query** Quick one: IC50 for CC[C@@]1(N)C[C@H]1c1ccc(NC(=O)c2ccc(N3CCOC3=O)cc2)cc1 (relative stereo) [Example A-83, hydrochloride] ?
**Result** < 0.1 µM

**Query** Quick one: IC50 for N[C@]1(c2ccccc2)C[C@H]1c1ccc(Cl)cc1 (relative stereo) [Example D-4, hydrochloride] ?
**Result** 0.1 to 1 µM

**Query** Quick one: IC50 for CC[C@@]1(N)C[C@H]1c1ccccc1-n1cc(-c2ccccc2)nn1 (relative stereo) [Example A-125, hydrochloride] ?
**Result** 0.1 to 1 µM

**Query** Quick one: IC50 for N[C@]1(CCc2ccccc2)C[C@H]1c1ccc(NC(=O)c2ccc(-c3ccccc3)cc2)cc1 (relative stereo) [Example A-113, hydrochloride] ?
**Result** 0.1 to 1 µM

**Query** Quick one: IC50 for CC[C@@]1(N)C[C@H]1c1ccc(NC(=O)c2cccc(Cl)c2)cc1 (relative stereo) [Example A-34, hydrochloride] ?
**Result** < 0.1 µM

**Query** Quick one: IC50 for N[C@]1(CCc2ccccc2)C[C@H]1c1ccc(F)cc1 (relative stereo) [Example A-59, hydrochloride] ?
**Result** 0.1 to 1 µM

**Query** Quick one: IC50 for CC[C@@]1(N)C[C@H]1c1ccc(NC(=O)c2cccc(N3CCOC3=O)c2)cc1 (relative stereo) ?
**Result** < 0.1 µM

**Query** Quick one: IC50 for CN1CCN(c2ccc(C(=O)Nc3ccc([C@@H]4C[C@]4(N)CCc4ccccc4)cc3)cc2)CC1 (relative stereo) [Example A-116, dihydrochloride] ?
**Result** < 0.1 µM

**Query** Quick one: IC50 for CC[C@@]1(N)C[C@H]1c1cccc(N=[N+]=[N-])c1 (relative stereo) [Example A-49, hydrochloride] ?
**Result** < 0.1 µM

**Query** Quick one: IC50 for CC[C@@]1(N)C[C@H]1c1ccc(NC(=O)c2ccccc2)c(F)c1 (relative stereo) [Example A-86, hydrochloride] ?
**Result** < 0.1 µM

**Query** Quick one: IC50 for CC[C@@]1(N)C[C@H]1c1ccc(NC(=O)c2ccc(-c3ccccc3)cc2)c(F)c1 (relative stereo) [Example A-87, hydrochloride] ?
**Result** < 0.1 µM

**Query** Quick one: IC50 for CC[C@@]1(N)C[C@H]1c1cccc(N2CCN(c3ccccc3)C2=O)c1 (relative stereo) [Example A-130, hydrochloride] ?
**Result** 0.1 to 1 µM

**Query** Quick one: IC50 for N[C@]1(Cc2ccccc2)C[C@H]1c1ccc(Cl)cc1 (relative stereo) [Example A-61, hydrochloride] ?
**Result** 0.1 to 1 µM

**Query** Quick one: IC50 for CN1CCN(c2ccc(C(=O)Nc3ccc([C@@H]4C[C@]4(N)c4ccccc4)cc3)cc2)CC1 (relative stereo) [Example A-110, hydrochloride] ?
**Result** < 0.1 µM

**Query** Quick one: IC50 for CC[C@@]1(N)C[C@H]1c1cccc(NC(=O)Cc2cccc3ccccc23)c1 (relative stereo) [Example A-77, hydrochloride] ?
**Result** 0.1 to 1 µM

**Query** Quick one: IC50 for N[C@]1(c2ccccc2)C[C@H]1c1ccc(NC(=O)Cc2ccccc2)cc1 (relative stereo) [Example A-105, hydrochloride] ?
**Result** < 0.1 µM

**Query** Quick one: IC50 for CC[C@@]1(N)C[C@H]1c1ccc(NC(=O)c2cccc(-c3ccccc3)c2)cc1 (relative stereo) ?
**Result** < 0.1 µM
